Reference for the values: patent US10280183B2

tested on: WI38 human lung fibroblast cell line (BR−); test: In vitro cytotoxicity, standard MTT assay, WI38 cells; format: cell-based; settings: 72 h incubation, no GSH-OEt; read-out: Cytotoxicity IC50, WI38, Assay 1
Property Measured: pIC50
Give bare numbers, as −log10 of the molar value.

Output measured pIC50 for this item: CC(=O)O[C@H]1C(=O)[C@@]2(C)[C@H]([C@H](OC(=O)c3ccccc3)[C@]3(O)C[C@H](OC(=O)[C@H](O)[C@@H](NC(=O)c4ccccc4)c4ccccc4)C(C)=C1C3(C)C)[C@]1(OC(C)=O)CO[C@@H]1C[C@@H]2O [paclitaxel, reference compound]
7.25

###

experiment: In vitro cytotoxicity, standard MTT assay, WI38 cells; assay type: cell-based, human; conditions: human, 72 h incubation, no GSH-OEt; read-out: Cytotoxicity IC50, WI38, Assay 1
I'd appreciate it if you could supply IC50 at 72 h values for the items below.
Numbers only, in nM.

Observe how each entry below is paired with its result.
CC(=O)O[C@@]12CO[C@@H]1C[C@H](O)[C@@]1(C)C(=O)[C@H](OC(=O)C3CC3)C3=C(C)[C@@H](OC(=O)[C@H](OC(=O)Cc4ccccc4SSC(C)CCC(=O)NNC(=O)CCCC[C@@H]4SC[C@@H]5NC(=O)N[C@@H]54)[C@H](C=C(C)C)NC(=O)OC(C)(C)C)C[C@@](O)([C@@H](OC(=O)c4ccccc4)[C@H]21)C3(C)C (stereo partly drawn) [Conjugate 15, Biotin-(SS-Linker)-SB-T-1214] ... 645
CC(=O)O[C@@]12CO[C@@H]1C[C@H](O)[C@@]1(C)C(=O)[C@H](OC(=O)C3CC3)C3=C(C)[C@@H](OC(=O)[C@H](O)[C@H](C=C(C)C)NC(=O)OC(C)(C)C)C[C@@](O)([C@@H](OC(=O)c4ccccc4)[C@H]21)C3(C)C [Taxoid 3, SB-T-1214, reference compound] ... 4.89

// next item, IC50 at 72 h requested
Output measured IC50 at 72 h for this item: CC(=O)O[C@@]12CO[C@@H]1C[C@H](O)[C@@]1(C)C(=O)[C@H](OC(=O)C3CC3)C3=C(C)[C@@H](OC(=O)[C@H](OC(=O)Cc4ccccc4SSC(C)C(=O)NCCNc4nc(NCCOCCOCCOCCNC(=O)CCCC[C@@H]5SC[C@@H]6NC(=O)N[C@@H]65)nc(NCc5cn(CCOCCOCCOCCF)nn5)n4)[C@H](C=C(C)C)NC(=O)OC(C)(C)C)C[C@@](O)([C@@H](OC(=O)c4ccccc4)[C@H]21)C3(C)C (stereo partly drawn) [Conjugate 1]
682
